target: Arachidonate 5-lipoxygenase (Cavia porcellus); assay: In vitro 5-lipoxygenase inhibition in guinea pig PMNs was determined based on LTB4 production
Measured IC50, listed per entry for reference.
ATTRIBUTE_MEASURED: IC50 (nM)

chemical_string=NC(=O)N(O)CC1=Cc2ccc(Oc3ccccc3)cc2OCC1 numeric_value=210
chemical_string=NC(=O)N(O)CC1=Cc2cc(Oc3ccccc3)ccc2OCC1 numeric_value=91
chemical_string=NC(=O)N(O)CC1=Cc2cc(Oc3ccccc3)ccc2SCC1 numeric_value=130
chemical_string=CNC(=O)N(O)CC1=Cc2cc(Oc3ccc(F)cc3)ccc2OCC1 numeric_value=130
chemical_string=NC(=O)N(O)CC1=Cc2cc(Oc3ccc(F)cc3)ccc2OCC1 numeric_value=98
